Test system: HOP-62
experimental-protocol: NCI drug screen, HOP-62
Format: cell-based, human
particulars: HOP-62 (Non-Small Cell Lung Cancer); 1.00E−5 Molar
measure-name: Growth Percent (%)

>  <mol>
O=C(CCl)Nc1ccc2c(c1NC(=O)Cc1ccccc1)C(=O)c1ccccc1C2=O

>  <units-text>
%

>  <reported-measurement>
115.67

$$$$
>  <mol>
Cc1ccc(C(=O)Nc2ccc3c(c2NC(=O)c2ccc(C)cc2)C(=O)c2ccccc2C3=O)cc1

>  <units-text>
%

>  <reported-measurement>
105.23

$$$$
>  <mol>
Cc1ccc(C(=O)Nc2c(NC(=O)CN3CCN(C)CC3)ccc3c2C(=O)c2ccccc2C3=O)cc1

>  <units-text>
%

>  <reported-measurement>
75.21

$$$$
>  <mol>
Cc1ccc(C(=O)Nc2c(NC(=O)CCl)ccc3c2C(=O)c2ccccc2C3=O)cc1

>  <units-text>
%

>  <reported-measurement>
−28.62

$$$$
>  <mol>
Cc1ccc(C(=O)Nc2c(NC(=O)CN3CCCC3)ccc3c2C(=O)c2ccccc2C3=O)cc1

>  <units-text>
%

>  <reported-measurement>
113.43

$$$$

====

System: hTERT
experimental-protocol: Secreted alkaline phosphatase (SEAP) assay, PhTERT-SEAP (H1299)
Assay type: cell-based
particulars: Homo sapiens, NCI-H1299, Conc. 100 μM, 24 hours, read-out: Relative SEAP activity (%) (converted)
Description: H1299 were grown in RPMI 1640 media supplemented with 10% fetal bovine serum, 100 units/mL penicillin and […] streptomycin in a humidified atmosphere with 5% CO2 at 37° C. Culture media were changed every three days. […]
Recorded activity at 100 µM for the following molecules

>  <molecule>
Cc1ccc(C(=O)Nc2c(NC(=O)CN3CCN(c4ccccc4)CC3)ccc3c2C(=O)c2ccccc2C3=O)cc1

>  <activity at 100 µM, %>
15.9

$$$$
>  <molecule>
Cc1ccc(C(=O)Nc2c(NC(=O)CN3CCC4(CC3)OCCO4)ccc3c2C(=O)c2ccccc2C3=O)cc1

>  <activity at 100 µM, %>
6.67

$$$$
>  <molecule>
O=C(CCl)Nc1ccc2c(c1NC(=O)c1ccccc1Cl)C(=O)c1ccccc1C2=O

>  <activity at 100 µM, %>
1.23

$$$$
>  <molecule>
O=C(CCl)Nc1ccc2c(c1NC(=O)c1ccccc1)C(=O)c1ccccc1C2=O

>  <activity at 100 µM, %>
16

$$$$
>  <molecule>
O=C(CCl)Nc1ccc2c(c1NC(=O)C1CC1)C(=O)c1ccccc1C2=O

>  <activity at 100 µM, %>
1.38

$$$$
>  <molecule>
CC(Cl)C(=O)Nc1c(NC(=O)CCl)ccc2c1C(=O)c1ccccc1C2=O (centres unmarked)

>  <activity at 100 µM, %>
2.38

$$$$
>  <molecule>
Nc1ccc2c(c1N)C(=O)c1ccccc1C2=O [1,2-diaminoanthraquinone, reference compound]

>  <activity at 100 µM, %>
18.2

$$$$
>  <molecule>
O=C(CN1CCN(c2ccccc2)CC1)Nc1ccc2c(c1NC(=O)c1ccccc1)C(=O)c1ccccc1C2=O

>  <activity at 100 µM, %>
89.6

$$$$

====

Recorded activity at 100 µM for the following compounds
Test system: hTERT
experimental-protocol: Secreted alkaline phosphatase (SEAP) assay, PhTERT-SEAP (H1299)
Assay type: cell-based
particulars: Homo sapiens, NCI-H1299, Conc. 100 μM, 24 hours, read-out: Relative SEAP activity (%) (converted)

>  <mol>
O=C(CN1CCN(c2ccccc2F)CC1)Nc1ccc2c(c1NC(=O)c1ccccc1)C(=O)c1ccccc1C2=O

>  <activity at 100 µM, %>
15.6

$$$$
>  <mol>
Cc1ccc(C(=O)Nc2c(NC(=O)CN3CCCC3)ccc3c2C(=O)c2ccccc2C3=O)cc1

>  <activity at 100 µM, %>
3.93

$$$$
>  <mol>
Cc1ccc(C(=O)Nc2c(NC(=O)CN3CCN(c4ccccc4C#N)CC3)ccc3c2C(=O)c2ccccc2C3=O)cc1

>  <activity at 100 µM, %>
20.8

$$$$
>  <mol>
O=C(CCl)Nc1ccc2c(c1NC(=O)CCCCl)C(=O)c1ccccc1C2=O

>  <activity at 100 µM, %>
30.9

$$$$
>  <mol>
O=C(CCl)Nc1ccc2c(c1NC(=O)CCCl)C(=O)c1ccccc1C2=O

>  <activity at 100 µM, %>
15.2

$$$$
>  <mol>
Cc1ccc(C(=O)Nc2c(NC(=O)CN3CCCCC3)ccc3c2C(=O)c2ccccc2C3=O)cc1

>  <activity at 100 µM, %>
8.3

$$$$
>  <mol>
O=C(CCl)Nc1ccc2c(c1NC(=O)c1ccc(C(F)(F)F)cc1)C(=O)c1ccccc1C2=O

>  <activity at 100 µM, %>
6.49

$$$$
>  <mol>
O=C(CCl)Nc1ccc2c(c1NC(=O)c1ccco1)C(=O)c1ccccc1C2=O

>  <activity at 100 µM, %>
2.62

$$$$
>  <mol>
O=C(CCl)Nc1ccc2c(c1NC(=O)c1ccccc1C(F)(F)F)C(=O)c1ccccc1C2=O

>  <activity at 100 µM, %>
2.4

$$$$
>  <mol>
Cc1ccccc1C(=O)Nc1c(NC(=O)CCl)ccc2c1C(=O)c1ccccc1C2=O

>  <activity at 100 µM, %>
-5.69

$$$$
>  <mol>
Cc1ccc(C(=O)Nc2c(NC(=O)CN3CCN(C)CC3)ccc3c2C(=O)c2ccccc2C3=O)cc1

>  <activity at 100 µM, %>
3.15

$$$$
>  <mol>
Cc1ccc(C(=O)Nc2c(NC(=O)CN3CCN(c4ccccn4)CC3)ccc3c2C(=O)c2ccccc2C3=O)cc1

>  <activity at 100 µM, %>
9.96

$$$$
>  <mol>
O=C(CCl)Nc1ccc2c(c1NC(=O)Cc1ccccc1)C(=O)c1ccccc1C2=O

>  <activity at 100 µM, %>
7.43

$$$$
>  <mol>
Cc1ccc(C(=O)Nc2c(NC(=O)CN3CCN(c4ccccc4F)CC3)ccc3c2C(=O)c2ccccc2C3=O)cc1

>  <activity at 100 µM, %>
20.1

$$$$
>  <mol>
Cc1ccc(C(=O)Nc2c(NC(=O)CN3CCN(CCO)CC3)ccc3c2C(=O)c2ccccc2C3=O)cc1

>  <activity at 100 µM, %>
-1.24

$$$$
>  <mol>
O=C(CCl)Nc1ccc2c(c1NC(=O)c1ccno1)C(=O)c1ccccc1C2=O

>  <activity at 100 µM, %>
1.35

$$$$
>  <mol>
O=C(CCl)Nc1ccc2c(c1NC(=O)C1CCCCC1)C(=O)c1ccccc1C2=O

>  <activity at 100 µM, %>
1.76

$$$$

====

System: HT29
experimental-protocol: NCI drug screen, HT29
Assay type: cell-based, human
particulars: HT29 (Colon Cancer); 1.00E−5 Molar
Recorded Growth Percent for the following compounds

>  <compound>
O=C(CCl)Nc1ccc2c(c1NC(=O)Cc1ccccc1)C(=O)c1ccccc1C2=O [CC-23]

>  <Growth Percent, %>
88.84

$$$$
>  <compound>
Cc1ccc(C(=O)Nc2c(NC(=O)CCl)ccc3c2C(=O)c2ccccc2C3=O)cc1 [CC-12]

>  <Growth Percent, %>
3.37

$$$$
>  <compound>
Cc1ccc(C(=O)Nc2c(NC(=O)CN3CCN(C)CC3)ccc3c2C(=O)c2ccccc2C3=O)cc1 [CC-43]

>  <Growth Percent, %>
3.69

$$$$
>  <compound>
Cc1ccc(C(=O)Nc2ccc3c(c2NC(=O)c2ccc(C)cc2)C(=O)c2ccccc2C3=O)cc1 [CC-04]

>  <Growth Percent, %>
99.39

$$$$
>  <compound>
Cc1ccc(C(=O)Nc2c(NC(=O)CN3CCCC3)ccc3c2C(=O)c2ccccc2C3=O)cc1 [CC-38]

>  <Growth Percent, %>
31.34

$$$$

====

Tested on: HCT-116
experimental-protocol: NCI drug screen, HCT-116
Type: cell-based, human
particulars: HCT-116 (Colon Cancer); 1.00E−5 Molar
Procedure: In brief, cellular protein levels were determined after 48 hours of drug exposure by sulforhodamine B colorimetry. Through the use of a time 0 cell control, the cell growth can be determined for each cell line thus allowing calculations of the 50% growth inhibitory concentration (GI50), the total growth inhibition (TGI), and the 50% lethal concentration (LC50). […]
Mark each entry Fulfilled if its Growth Percent sits below 60%, and Not fulfilled for all others.

>  <mol>
Cc1ccc(C(=O)Nc2c(NC(=O)CCl)ccc3c2C(=O)c2ccccc2C3=O)cc1

>  <category>
Fulfilled

$$$$
>  <mol>
Cc1ccc(C(=O)Nc2ccc3c(c2NC(=O)c2ccc(C)cc2)C(=O)c2ccccc2C3=O)cc1

>  <category>
Not fulfilled

$$$$
>  <mol>
Cc1ccc(C(=O)Nc2c(NC(=O)CN3CCN(C)CC3)ccc3c2C(=O)c2ccccc2C3=O)cc1

>  <category>
Fulfilled

$$$$
>  <mol>
O=C(CCl)Nc1ccc2c(c1NC(=O)Cc1ccccc1)C(=O)c1ccccc1C2=O

>  <category>
Not fulfilled

$$$$
